Target: MAO-B (Homo sapiens)
Assay: IC50 determination, inhibition of recombinant human MAO-B
Assay type: biochemical
Conditions: selectivity for the MAO-B isoform
PARAMETER MEASURED: SI (selectivity index, IC50(MAO-A)/IC50(MAO-B))
Numbers only.

1. CCCCOc1ccc(C(C)=O)c(O)c1 [Compound 2n, 2-Acetyl-5-butoxyphenol] : 84
2. CC(=O)c1ccc(OCc2ccc(C#N)cc2)cc1O [Compound 2l, 2-Acetyl-5-(4-cyanobenzyloxy)phenol] : 680
3. CC(=O)c1ccc(OCc2ccc(C)cc2)cc1O [Compound 2j, 2-Acetyl-5-(4-methylbenzyloxy)phenol] : 969
4. CC(=O)c1ccc(OCc2ccccc2)cc1 [Compound 3a, 4′-Benzyloxyacetophenone] : 722

Hi there! I need SI (selectivity index, IC50(MAO-A)/IC50(MAO-B)) for each item below, if you can.
1. CC(=O)c1ccc(OCCCc2ccccc2)cc1O [Compound 2c, 2-Acetyl-5-(3-phenylpropoxy)phenol]
2. CC(=O)c1ccc(O)cc1O [Compound 4, 2′,4′-dihydroxyacetophenone, reference compound]

178
1.2

Give reported SI (selectivity index, IC50(MAO-A)/IC50(MAO-B)) value for CC(=O)c1ccc(OCc2cccc(C#N)c2)cc1O [Compound 2k, 2-Acetyl-5-(3-cyanobenzyloxy)phenol]
71

###

Target: recombinant human MAO-A (Homo sapiens, UniProt P21397)
Sequence (P21397 whole entry): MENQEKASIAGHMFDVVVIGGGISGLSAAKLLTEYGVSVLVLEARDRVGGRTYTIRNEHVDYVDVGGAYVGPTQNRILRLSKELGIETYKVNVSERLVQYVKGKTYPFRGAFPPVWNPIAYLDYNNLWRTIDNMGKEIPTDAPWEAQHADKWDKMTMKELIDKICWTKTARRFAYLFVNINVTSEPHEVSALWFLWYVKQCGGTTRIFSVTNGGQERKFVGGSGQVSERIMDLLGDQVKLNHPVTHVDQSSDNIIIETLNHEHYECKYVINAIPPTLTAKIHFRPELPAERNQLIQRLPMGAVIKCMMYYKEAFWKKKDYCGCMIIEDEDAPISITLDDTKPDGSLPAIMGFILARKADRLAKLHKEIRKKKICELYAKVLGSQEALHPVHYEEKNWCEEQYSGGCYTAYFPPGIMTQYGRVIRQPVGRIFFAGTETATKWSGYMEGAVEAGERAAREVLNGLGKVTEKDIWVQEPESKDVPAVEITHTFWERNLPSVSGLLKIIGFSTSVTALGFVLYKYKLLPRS
Experiment: IC50 determination, inhibition of recombinant human MAO-A
Settings: mean ± SD of triplicate determinations
For each record, write down the corresponding IC50.
One number for each entry, in µM.

See these solved cases before continuing.
1) CC(=O)c1ccc(OCc2ccccc2)cc1O [Compound 2a, 2-Acetyl-5-benzyloxyphenol] : 8.36
2) CCCCCCCOc1ccc(C(C)=O)c(O)c1 [Compound 2o, 2-Acetyl-5-heptyloxyphenol] : 60.4

Hi there! I need IC50 for each item below, if you can.
1. CC(=O)c1ccc(O)cc1O [Compound 4, 2′,4′-dihydroxyacetophenone, reference compound]
2. CCCCOc1ccc(C(C)=O)c(O)c1 [Compound 2n, 2-Acetyl-5-butoxyphenol]
3. CC(=O)c1ccc(OCc2ccccc2)cc1 [Compound 3a, 4′-Benzyloxyacetophenone]
4. CC(=O)c1ccc(OCc2cccc(C)c2)cc1O [Compound 2i, 2-Acetyl-5-(3-methylbenzyloxy)phenol]

47.7
8.65
19.5
17.7

Hi there! I need IC50 for each item below, if you can.
1. CC(=O)c1ccc(OCc2ccc(C#N)cc2)cc1O [Compound 2l, 2-Acetyl-5-(4-cyanobenzyloxy)phenol]
2. CC(=O)c1ccc(OCc2ccc(Cl)cc2)cc1O [Compound 2g, 2-Acetyl-5-(4-chlorobenzyloxy)phenol]
3. CC(=O)c1ccc(OCc2ccc(C(F)(F)F)cc2)cc1O [Compound 2m]
4. CC(=O)c1ccc(OCc2ccc(C)cc2)cc1O [Compound 2j, 2-Acetyl-5-(4-methylbenzyloxy)phenol]
5. CC(=O)c1ccc(OCc2cccc(C#N)c2)cc1O [Compound 2k, 2-Acetyl-5-(3-cyanobenzyloxy)phenol]
6. CC(=O)c1ccc(OCCCc2ccccc2)cc1O [Compound 2c, 2-Acetyl-5-(3-phenylpropoxy)phenol]

1: 2.72; 2: 1.81; 3: 13.6; 4: 25.2; 5: 1.64; 6: 10.7

Hi there! I need IC50 for each item below, if you can.
1. CC(=O)c1ccc(OCc2cccc(I)c2)cc1O [Compound 2h, 2-Acetyl-5-(3-iodobenzyloxy)phenol]
2. CC(=O)c1ccc(OCCc2ccccc2)cc1O [Compound 2b, 2-Acetyl-5-(2-phenylethoxy)phenol]

26.9
4.7

###

Biological target: MAO-B (Homo sapiens, UniProt P27338)
Sequence (P27338 1-520): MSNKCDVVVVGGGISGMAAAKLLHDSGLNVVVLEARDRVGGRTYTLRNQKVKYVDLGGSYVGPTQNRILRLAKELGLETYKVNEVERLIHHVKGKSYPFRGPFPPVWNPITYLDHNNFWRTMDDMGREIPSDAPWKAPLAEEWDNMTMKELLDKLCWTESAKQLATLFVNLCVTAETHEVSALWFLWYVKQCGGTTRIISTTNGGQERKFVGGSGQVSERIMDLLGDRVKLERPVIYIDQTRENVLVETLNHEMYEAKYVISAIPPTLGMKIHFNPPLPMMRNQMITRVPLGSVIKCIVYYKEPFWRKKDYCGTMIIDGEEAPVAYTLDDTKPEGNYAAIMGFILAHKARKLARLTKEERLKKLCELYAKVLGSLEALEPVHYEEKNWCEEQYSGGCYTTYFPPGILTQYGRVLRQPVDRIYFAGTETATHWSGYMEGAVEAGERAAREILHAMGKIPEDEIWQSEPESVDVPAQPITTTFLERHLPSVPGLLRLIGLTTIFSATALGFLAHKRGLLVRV
Assay: IC50 determination, inhibition of recombinant human MAO-B
PARAMETER MEASURED: IC50 (nM)
Numbers only, in nM.

1) CC(=O)c1ccc(O)cc1O [Compound 4, 2′,4′-dihydroxyacetophenone, reference compound] : 39700
2) CCC(=O)c1ccc(OCc2ccccc2)cc1O : 4
3) CC(=O)c1ccc(OCc2cccc(C#N)c2)cc1O : 23

Next compound, please.
Give reported IC50 value for CCCCCCCOc1ccc(C(C)=O)c(O)c1
156

###

For each record, write down the corresponding SI (selectivity index, IC50(MAO-A)/IC50(MAO-B)).
Biological target: MAO-B (Homo sapiens)
Assay: IC50 determination, inhibition of recombinant human MAO-B
Format: biochemical
Details: selectivity for the MAO-B isoform
Give bare numbers.

See these solved cases before continuing.
1) CCCCCCCOc1ccc(C(C)=O)c(O)c1 : 387
2) CC(=O)c1ccc(OCCc2ccccc2)cc1O : 30

Next molecule, please.
Give reported SI (selectivity index, IC50(MAO-A)/IC50(MAO-B)) value for CC(=O)c1ccc(OCc2cccc(C)c2)cc1O
328

###

For each record, write down the corresponding SI (selectivity index, IC50(MAO-A)/IC50(MAO-B)).
Target: MAO-B (Homo sapiens)
Assay: IC50 determination, inhibition of recombinant human MAO-B
Assay type: biochemical
Conditions: selectivity for the MAO-B isoform

1. CC(=O)c1ccc(OCc2ccc(C(F)(F)F)cc2)cc1O : 1,360
2. CC(=O)c1ccc(OCc2ccccc2)cc1O : 1,194

Next compound, please.
Give reported SI (selectivity index, IC50(MAO-A)/IC50(MAO-B)) value for CCC(=O)c1ccc(OCc2ccccc2)cc1O
9,550
